# TARGET SYSTEM: T1, dP75 PWWP (Drosophila melanogaster, UniProt Q9VAA9 9-90)
# T1 sequence: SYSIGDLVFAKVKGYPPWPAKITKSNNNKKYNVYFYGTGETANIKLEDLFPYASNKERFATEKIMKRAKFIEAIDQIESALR
# EXPERIMENTAL DETAILS: fluorescence polarization
MEASURED METRIC: Kd (µM)
Output spec: scalar in µM, unitless text.

*Q* What measured Kd goes with 12 bp poly(A:T) (dsDNA) DNA 1: TTTTTTTTTTTT DNA 2: AAAAAAAAAAAA ?
*A* 18.2

Where these numbers come from: paper PMC11910589
